Attribution: patent US8143244B2

- System: HCV replicon
- measurement-notes: HCV replicon FRET / luciferase assay (NeoLuc)
- Assay type: cell-based, HCV genotype 1b
- recorded-conditions: Hepatitis C virus, genotype 1b, read-out: NeoLuc EC50, Table 1; HCV replicon cells, genotype 1b
Overview of reported EC50 across a group of compounds:

compound: COc1ccc2c(c1)C=C(C(=O)N1CC34COCC3(CN(C)C4)C1)Cn1c-2c(C2CCCCC2)c2ccc(C(=O)NS(=O)(=O)C3CC3)cc21 (stereo not drawn)
EC50: 1.9 to 500 nM

compound: COc1ccc2c(c1)C1CC1(C(=O)N1CC34CNCC3(CN(C)C4)C1)Cn1c-2c(C2CCCCC2)c2ccc(C(=O)NS(=O)(=O)N(C)C)cc21 (stereo not drawn)
EC50: 1.9 to 500 nM

compound: COc1ccc2c(c1)C1CC1(C(=O)N1CC34CNCC3(COC4)C1)Cn1c-2c(C2CCCCC2)c2ccc(C(=O)NS(=O)(=O)N(C)C)cc21 (stereo not drawn)
EC50: 1.9 to 500 nM

compound: C=C(C)S(=O)(=O)NC(=O)c1ccc2c(C3CCCCC3)c3n(c2c1)C[C@@]1(C(=O)N2CC45COCC4(CN(C)C5)C2)C[C@H]1c1cc(OC)ccc1-3 (stereo partly drawn)
EC50: 1.9 to 500 nM

compound: COc1ccc2c(c1)CC(C(=O)N1CC34CNCC3(COC4)C1)Cn1c-2c(C2CCCCC2)c2ccc(C(=O)NS(=O)(=O)C3CC3)cc21 (stereo not drawn)
EC50: > 1000 nM

compound: COc1ccc2c(c1)C1CC1(C(=O)N1CC34COCC3(CN(C)C4)C1)Cn1c-2c(C2CCCCC2)c2ccc(C(=O)NS(=O)(=O)CC(C)C)cc21 (stereo not drawn)
EC50: 1.9 to 500 nM

====

Overview of reported EC50 across a group of compounds:
- Test system: HCV replicon
- measurement-notes: HCV replicon FRET / luciferase assay (NeoLuc)
- Type: cell-based, HCV genotype 1b
- recorded-conditions: Table 2; HCV replicon cells; read-out: NeoLuc EC50

compound: COc1ccc2c(c1)[C@@H]1C[C@]1(C(=O)N1CC34COCC3(C1)N(C(C)=O)C4)Cn1c-2c(C2CCCCC2)c2ccc(C(=O)NS(=O)(=O)C(C)C)cc21 (some centres unmarked) [drawing 110]
tested-on: HCV replicon
EC50: 10 nM
//
compound: COc1ccc2c(c1)[C@@H]1C[C@]1(C(=O)N1CC34COCC3(C1)N(C(C)=O)C4)Cn1c-2c(C2CCCCC2)c2ccc(C(=O)NS(=O)(=O)C(C)C)cc21 (some centres unmarked) [drawing 109]
tested-on: HCV replicon
EC50: 130 nM

====

- tested-on: HCV NS5B (Hepatitis C virus genotype 1b)
- Construct: The protein was expressed with an 18 amino acid C-terminal truncation to enhance the solubility; made in house; host or cells: E. coli BL21(DE3)
- Sequence (Q9WMX2 2420-2992): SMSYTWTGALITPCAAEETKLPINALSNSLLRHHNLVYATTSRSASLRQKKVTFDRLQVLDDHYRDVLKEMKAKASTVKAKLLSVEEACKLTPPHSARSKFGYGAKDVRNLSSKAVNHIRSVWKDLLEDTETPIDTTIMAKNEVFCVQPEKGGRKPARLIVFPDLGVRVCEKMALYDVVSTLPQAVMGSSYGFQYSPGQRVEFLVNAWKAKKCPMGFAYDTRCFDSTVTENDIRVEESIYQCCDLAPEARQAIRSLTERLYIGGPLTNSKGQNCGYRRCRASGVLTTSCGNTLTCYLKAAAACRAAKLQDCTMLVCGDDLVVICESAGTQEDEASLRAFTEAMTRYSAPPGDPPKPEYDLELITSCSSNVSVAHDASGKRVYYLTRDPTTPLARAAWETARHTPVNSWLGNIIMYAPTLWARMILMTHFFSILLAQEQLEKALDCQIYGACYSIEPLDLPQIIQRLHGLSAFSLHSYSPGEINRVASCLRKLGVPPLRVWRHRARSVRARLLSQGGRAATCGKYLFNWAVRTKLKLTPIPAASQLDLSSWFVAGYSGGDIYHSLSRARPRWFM
- measurement-notes: HCV NS5B RdRp enzyme assay
- Type: biochemical
- recorded-conditions: Table 1; HCV NS5B RdRp genotype 1b
pIC50: −log10 of the molar value.
endpoint: pIC50

compound: C=C(C)S(=O)(=O)NC(=O)c1ccc2c(C3CCCCC3)c3n(c2c1)C[C@@]1(C(=O)N2CC45COCC4(CN(C)C5)C2)C[C@H]1c1cc(OC)ccc1-3 (stereo partly drawn)
observed-result: 6.30 to 8.72
--
compound: CCN1CC23COCC2(C1)CN(C(=O)[C@]12C[C@H]1c1cc(OC)ccc1-c1c(C4CCCCC4)c4ccc(C(=O)NS(=O)(=O)C(C)C)cc4n1C2)C3 (stereo partly drawn)
observed-result: 6.30 to 8.72
--
compound: COc1ccc2c(c1)C1CC1(C(=O)N1CC34CNCC3(COC4)C1)Cn1c-2c(C2CCCCC2)c2ccc(C(=O)NS(=O)(=O)C(C)C)cc21 (stereo not drawn)
observed-result: 6.30 to 8.72
--
compound: COc1ccc2c(c1)[C@@H]1C[C@]1(C(=O)N1CC34COCC3(C1)CN(C1CC1)C4)Cn1c-2c(C2CCCCC2)c2ccc(C(=O)NS(=O)(=O)N(C)C)cc21 (stereo partly drawn)
observed-result: 6.30 to 8.72
--
compound: C=C(/C=C1\C(=C)c2c(C3CCCCC3)c3ccc(C(=O)NS(=O)(=O)C(C)C)cc3n2CC2(C(=O)N3CC45CNCC4(CNC5)C3)CC12)OC (stereo not drawn)
observed-result: > 8.64
--
compound: CCOCCN1CC23COCC2(C1)CN(C(=O)[C@]12C[C@H]1c1cc(OC)ccc1-c1c(C4CCCCC4)c4ccc(C(=O)NS(=O)(=O)C(C)C)cc4n1C2)C3 (stereo partly drawn) [drawing 101]
observed-result: 6.30 to 8.72

====

Overview of reported pEC50 across a group of compounds:
- Test system: HCV replicon
- measurement-notes: HCV replicon FRET / luciferase assay (NeoLuc)
- Type: cell-based, HCV genotype 1b
- recorded-conditions: Hepatitis C virus, genotype 1b, read-out: NeoLuc EC50, Table 1; HCV replicon cells, genotype 1b
pEC50: −log10 of the molar value.

compound: COc1ccc2c(c1)[C@@H]1C[C@]1(C(=O)N1CC34COCC3(C1)CN(C1CC1)C4)Cn1c-2c(C2CCCCC2)c2ccc(C(=O)NS(=O)(=O)N(C)C)cc21 (stereo partly shown)
tested-on: HCV replicon
pEC50: 6.30 to 8.72
//
compound: COc1ccc2c(c1)CC(C(=O)N1CC34CNCC3(CN(C)C4)C1)Cn1c-2c(C2CCCCC2)c2ccc(C(=O)NS(=O)(=O)C3CC3)cc21 (stereo not shown)
tested-on: HCV replicon
pEC50: < 6.00
//
compound: COc1ccc2c(c1)C1CC1(C(=O)N1CC34CNCC3(COC4)C1)Cn1c-2c(C2CCCCC2)c2ccc(C(=O)NS(=O)(=O)C(C)C)cc21 (stereo not shown)
tested-on: HCV replicon
pEC50: 6.30 to 8.72
//
compound: COc1ccc2c(c1)C1CC1(C(=O)N1CC34COCC3(CN(C)C4)C1)Cn1c-2c(C2CCCCC2)c2ccc(C(=O)NS(=O)(=O)C(C)C)cc21 (stereo not shown)
tested-on: HCV replicon
pEC50: 6.30 to 8.72
//
compound: COc1ccc2c(c1)[C@@H]1C[C@]1(C(=O)N1CC34COCC3(CN(C)C4)C1)Cn1c-2c(C2CCCCC2)c2ccc(C(=O)NS(=O)(=O)C(C)C)cc21 (stereo partly shown)
tested-on: HCV replicon
pEC50: 6.30 to 8.72
//
compound: COc1ccc2c(c1)[C@@H]1C[C@]1(C(=O)N1CC34COCC3(C1)N(C(C)=O)C4)Cn1c-2c(C2CCCCC2)c2ccc(C(=O)NS(=O)(=O)N(C)C)cc21 (stereo partly shown)
tested-on: HCV replicon
pEC50: 6.30 to 8.72
//
compound: COc1ccc2c(c1)C=C(C(=O)N1CC34CNCC3(COC4)C1)Cn1c-2c(C2CCCCC2)c2ccc(C(=O)NS(=O)(=O)C3CC3)cc21 (stereo not shown)
tested-on: HCV replicon
pEC50: 6.30 to 8.72
//
compound: COc1ccc2c(c1)[C@@H]1C[C@]1(C(=O)N1CC34CN(C)CC3(CN(C)C4)C1)Cn1c-2c(C2CCCCC2)c2ccc(C(=O)NS(=O)(=O)C(C)C)cc21 (stereo partly shown)
tested-on: HCV replicon
pEC50: 6.30 to 8.72
//
compound: COc1ccc2c(c1)C1CC1(C(=O)N1CC34CN(C)CC3(CN(C)C4)C1)Cn1c-2c(C2CCCCC2)c2ccc(C(=O)NS(=O)(=O)C(C)C)cc21 (stereo not shown)
tested-on: HCV replicon
pEC50: 6.30 to 8.72
//
compound: COc1ccc2c(c1)C1CC1(C(=O)N1CC34CNCC3(COC4)C1)Cn1c-2c(C2CCCCC2)c2ccc(C(=O)NS(=O)(=O)CC(C)C)cc21 (stereo not shown)
tested-on: HCV replicon
pEC50: 6.30 to 8.72
//
compound: COc1ccc2c(c1)C1CC1(C(=O)N1CC34COCC3(CN(C(C)=O)C4)C1)Cn1c-2c(C2CCCCC2)c2ccc(C(=O)NS(=O)(=O)CC(C)C)cc21 (stereo not shown)
tested-on: HCV replicon
pEC50: 6.30 to 8.72
//
compound: C=C(/C=C1\C(=C)c2c(C3CCCCC3)c3ccc(C(=O)NS(=O)(=O)C(C)C)cc3n2CC2(C(=O)N3CC45CNCC4(CNC5)C3)CC12)OC (stereo not shown)
tested-on: HCV replicon
pEC50: < 6.00
//
compound: COc1ccc2c(c1)[C@@H]1C[C@]1(C(=O)N1CC34CNCC3(CN(C)C4)C1)Cn1c-2c(C2CCCCC2)c2ccc(C(=O)NS(=O)(=O)C(C)C)cc21 (stereo partly shown)
tested-on: HCV replicon
pEC50: 6.30 to 8.72
